Assay: AUC (0 to 24 hrs) in nu/nu BALB/c mouse at 100 mg/kg, po
Assay type: ADME, organism-based
Design: time < 24 hr, dose 100 mg/kg, route oral
Settings: plasma
measured.quantity: AUC(0-t) at 24 h (µg·h/mL)
Give the value, in units of µg·h/mL, as a plain number.

Looking up "COc1c(C(=O)NC2CCN(C(=O)CO)CC2)n(C)c2c1c(=O)n(CC(=O)c1ccccc1)c1ccccc21" , I found its AUC(0-t) at 24 h recorded as 32.3

Further cases:
Looking up "CCc1cc2c(c(OCC(F)(F)F)c(C(=O)NC3CCN(C(=O)CO)CC3)n2C)c(=O)n1CC(=O)c1ccccc1" , I found its AUC(0-t) at 24 h recorded as 206

----------
Experiment: AUC (0 to 24 hrs) in rat at 10 mg/kg, po
Assay type: ADME, organism-based
Parameters: time < 24 hr, dose 10 mg/kg, route oral
Settings: plasma
measured.quantity: AUC(0-t) at 24 h (ng·h/mL)
Give the value, in units of ng·h/mL, as a plain number.

Looking up CCc1cc2c(c(OCC(F)(F)F)c(C(=O)NC3CCN(C(=O)CO)CC3)n2C)c(=O)n1CC(=O)c1ccccc1 [TAK-441] , I found its AUC(0-t) at 24 h recorded as 8030

----------
Test: Clearance in rat at 1 mg/kg, iv and 10 mg/kg, po
Type: ADME, organism-based
Settings: in vivo
measured.quantity: clearance (mL/min/kg)
Give the value, in units of mL/min/kg, as a plain number.

Looking up "CCc1cc2c(c(OCC(F)(F)F)c(C(=O)NC3CCN(C(=O)CO)CC3)n2C)c(=O)n1CC(=O)c1ccccc1" , I found its clearance recorded as 6.63

----------
Assay: AUC (0 to 24 hrs) in dog at 10 mg/kg, po
Assay type: ADME, organism-based, Canis lupus familiaris
Parameters: time < 24 hr, dose 10 mg/kg, route oral
Conditions: plasma
measured.quantity: AUC(0-t) at 24 h
Don't forget the unit after the value.

Looking up "CCc1cc2c(c(OCC(F)(F)F)c(C(=O)NC3CCN(C(=O)CO)CC3)n2C)c(=O)n1CC(=O)c1ccccc1" , I found its AUC(0-t) at 24 h recorded as 45400 ng·h/mL

----------
Assay: Volume of distribution at steady state in dog at 1 mg/kg, iv and 10 mg/kg, po
Type: ADME, organism-based, Canis lupus familiaris
Details: in vivo, read-out: Vdss
measured.quantity: Vd (L/kg)
Give the value, in units of L/kg, as a plain number.

Looking up CCc1cc2c(c(OCC(F)(F)F)c(C(=O)NC3CCN(C(=O)CO)CC3)n2C)c(=O)n1CC(=O)c1ccccc1 [TAK-441] , I found its Vd recorded as 2.18

----------
Test: Volume of distribution at steady state in rat at 1 mg/kg, iv and 10 mg/kg, po
Type: ADME, organism-based
Conditions: in vivo, read-out: Vdss
measured.quantity: Vd (L/kg)
Give the value, in units of L/kg, as a plain number.

Looking up "CCc1cc2c(c(OCC(F)(F)F)c(C(=O)NC3CCN(C(=O)CO)CC3)n2C)c(=O)n1CC(=O)c1ccccc1" , I found its Vd recorded as 0.682

----------
Experiment: AUC (0 to 24 hrs) in rat at 1 mg/kg, iv
Assay type: ADME, organism-based
Set-up: time < 24 hr, dose 1 mg/kg, route intravenous
Details: plasma
measured.quantity: AUC(0-t) at 24 h (ng·h/mL)
Give the value, in units of ng·h/mL, as a plain number.

Looking up "CCc1cc2c(c(OCC(F)(F)F)c(C(=O)NC3CCN(C(=O)CO)CC3)n2C)c(=O)n1CC(=O)c1ccccc1" , I found its AUC(0-t) at 24 h recorded as 2530
